The measurements presented in this section are drawn from ChEMBL document CHEMBL3638751.

Tested system: Phosphatidylinositol 4,5-bisphosphate 3-kinase catalytic subunit alpha isoform (Homo sapiens)
Sequence (P42336 whole entry, canonical isoform): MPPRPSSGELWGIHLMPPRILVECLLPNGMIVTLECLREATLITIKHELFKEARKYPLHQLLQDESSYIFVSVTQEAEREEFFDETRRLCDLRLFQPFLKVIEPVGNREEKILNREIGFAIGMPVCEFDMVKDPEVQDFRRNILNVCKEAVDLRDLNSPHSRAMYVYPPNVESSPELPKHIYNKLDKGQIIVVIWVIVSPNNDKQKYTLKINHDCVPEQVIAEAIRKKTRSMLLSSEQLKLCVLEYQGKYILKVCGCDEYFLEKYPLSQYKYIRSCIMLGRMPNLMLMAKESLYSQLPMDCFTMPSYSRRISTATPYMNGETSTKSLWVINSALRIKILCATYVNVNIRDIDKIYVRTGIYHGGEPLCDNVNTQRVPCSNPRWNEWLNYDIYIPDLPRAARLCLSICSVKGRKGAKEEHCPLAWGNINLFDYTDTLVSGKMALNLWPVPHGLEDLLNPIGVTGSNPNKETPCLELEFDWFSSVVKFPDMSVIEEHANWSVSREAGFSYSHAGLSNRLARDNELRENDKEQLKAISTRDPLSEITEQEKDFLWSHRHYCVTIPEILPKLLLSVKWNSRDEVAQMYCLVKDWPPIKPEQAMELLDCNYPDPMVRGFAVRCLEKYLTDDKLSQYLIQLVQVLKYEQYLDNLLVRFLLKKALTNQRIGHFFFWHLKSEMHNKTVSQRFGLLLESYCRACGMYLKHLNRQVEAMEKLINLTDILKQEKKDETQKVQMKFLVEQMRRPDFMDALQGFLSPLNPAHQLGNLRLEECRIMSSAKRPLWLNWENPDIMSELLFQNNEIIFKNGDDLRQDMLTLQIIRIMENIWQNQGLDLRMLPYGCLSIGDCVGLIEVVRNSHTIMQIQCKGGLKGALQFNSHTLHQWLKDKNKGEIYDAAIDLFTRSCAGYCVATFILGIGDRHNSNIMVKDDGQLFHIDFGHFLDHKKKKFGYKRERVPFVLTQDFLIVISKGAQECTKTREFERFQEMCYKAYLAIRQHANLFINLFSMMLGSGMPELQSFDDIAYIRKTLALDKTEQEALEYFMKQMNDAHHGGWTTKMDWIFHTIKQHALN
Experimental details: Filter-Binding-Assay: This PI3Kalpha assay provides an IC50 value indicative of the activity of the compounds to inhibit PI3 kinase alpha activity. Inhibition of PI3 kinase would be expected to be indicative of activity in treating conditions of excessive or anomalous cell proliferation, such as cancers. See also J. A. Engelman, Nature Reviews Cancer, 2009, 9, 550-562; A. Carnero, Expert Opin. Investig. Drugs, 2009, 18, 1265-1277 and P. Liu et al., Nature Reviews Drug Discovery, 2009, 8, 627-64.
Readout label: pIC50
To interpret pIC50, take it as minus log10 of a concentration measured in moles per litre.

CCc1ncnc(N2CCC(O)CC2)c1C#Cc1cnc(C)c(NS(C)(=O)=O)c1 | 9.07

Challenge: Which pIC50 value is on record for Cc1ncc(C#Cc2c(C)ncnc2N2CCOCC2)cc1NS(=O)(=O)c1cnn(C)c1 ?
Response given: 9.25
